target: T1, labeled peptide-MHC (HLA-A*02:01) tetramer (…-HLA-A*02:01 tetramer) (human); assay: tetramer staining of sorted T cell clones, flow cytometry
T1 construct: Labeled tetramer used for flow cytometry staining; also called pMHC; pMHC tetramer
QUANTITY_KIND: binding result

So what's the measured binding result for this one? nwTCR-2718 (TCR, V domains shown, TCR on T cells) V domain 1: GQQLNQSPQSMFIQEGEDVSMNCTSSSIFNTWLWYKQDPGEGPVLLIALYKAGELTSNGRLTAQFGITRKDSFLNISASIPSDVGIYFCAGFSQGGSEKLVFGKGTKLTVNP V domain 2: DSGVTQTPKHLITATGQRVTLRCSPRSGDLSVYWYQQSLDQGLQFLIQYYNGEERAKGNILERFSAQQFPDLHSELNLSSLELGDSALYFCASSPWTAGGNTIYFGEGSWLTVVE binds

So what's the measured binding result for this one? nwTCR-2916 (TCR, V domains shown, TCR on T cells) V domain 1: GQQLNQSPQSMFIQEGEDVSMNCTSSSIFNTWLWYKQDPGEGPVLLIALYKAGELTSNGRLTAQFGITRKDSFLNISASIPSDVGIYFCAGQDDGGSQGNLIFGKGTKLSVKP V domain 2: DSGVTQTPKHLITATGQRVTLRCSPRSGDLSVYWYQQSLDQGLQFLIQYYNGEERAKGNILERFSAQQFPDLHSELNLSSLELGDSALYFCASSPWTSGGDGELFFGEGSRLTVLE binds

So what's the measured binding result for this one? nwTCR-3173 (TCR, V domains shown, TCR on T cells) V domain 1: SQQGEEDPQALSIQEGENATMNCSYKTSINNLQWYRQNSGRGLVHLILIRSNEREKHSGRLRVTLDTSKKSSSLLITASRAADTASYFCATYANDYKLSFGAGTTVTVRA V domain 2: EAQVTQNPRYLITVTGKKLTVTCSQNMNHEYMSWYRQDPGLGLRQIYYSMNVEVTDKGDVPEGYKVSRKEKRNFPLILESPSPNQTSLYFCASSAGTGGFVGYTFGSGTRLTVVE binds
